# measurement notes: method code SF, from DOI: 10.1016/0223-5234(96)88244-4
# details: pH 7.4
recorded endpoint: logD
Reply with just the number.

Sample `N#CN=C(NS(=O)(=O)c1cnccc1NC1CCCCC1)N1CCCC1` ; logD observed: 1.07

###

recorded endpoint: logP
Reply with just the number.

Sample `CC(C)NC(=NC#N)NS(=O)(=O)c1cnccc1Nc1cccc(Br)c1` ; logP observed: 1.27

Sample `CC(C)NC(=NC#N)NS(=O)(=O)c1cnccc1Nc1cccc(Cl)c1` ; logP observed: 1.14

Sample `CC(C)NC(=NC#N)NS(=O)(=O)c1cnccc1NC1CCCCCCCCCCC1` ; logP observed: 3.73

Sample `CC(C)NC(=NC#N)NS(=O)(=O)c1cnccc1NC1CCCCCCC1` ; logP observed: 1.8

Sample `CC(C)NC(=NC#N)NS(=O)(=O)c1cnccc1Nc1cccc(I)c1` ; logP observed: 1.51

Sample `N#CN=C(NS(=O)(=O)c1cnccc1NC1CCCCCC1)N1CCCC1` ; logP observed: 1.65

###

Cut-off 0.7 on logP: below means yes, at or above means no.

Hi there! Is logP for `CC(C)NC(=NC#N)NS(=O)(=O)c1cnccc1NC1CCCC1` below 0.7, do you know?
yes

Hi there! Is logP for `CCCNc1ccncc1S(=O)(=O)NC(=NC#N)NC(C)C` below 0.7, do you know?
yes

Hi there! Is logP for `CC(C)NC(=NC#N)NS(=O)(=O)c1cnccc1Nc1ccc(Cl)cc1` below 0.7, do you know?
no

Hi there! Is logP for `Cc1ccc(Nc2ccncc2S(=O)(=O)NC(=NC#N)NC(C)C)cc1` below 0.7, do you know?
no

Hi there! Is logP for `CCNC(=NC#N)NS(=O)(=O)c1cnccc1NC1CCCCC1` below 0.7, do you know?
yes

Hi there! Is logP for `CC(C)N=C(NC#N)NS(=O)(=O)c1cnccc1Nc1cccc(F)c1` below 0.7, do you know?
yes

Hi there! Is logP for `N#CN=C(NS(=O)(=O)c1cnccc1NC1CCCCCCC1)N1CCCC1` below 0.7, do you know?
no

###

recorded endpoint: logP
Reply with just the number.

// worked examples, logP included
[[record]]
structure_smiles = "CC(C)CNc1ccncc1S(=O)(=O)NC(=NC#N)NC(C)C"
recorded_endpoint = "logP"
quantitative_readout = 0.1

[[record]]
structure_smiles = "CNc1ccncc1S(=O)(=O)NC(=NC#N)NC(C)C"
recorded_endpoint = "logP"
quantitative_readout = -1.43

[[record]]
structure_smiles = "CC(C)NC(=NC#N)NS(=O)(=O)c1cnccc1NC1CC1"
recorded_endpoint = "logP"
quantitative_readout = -0.77


Sample `CCNc1ccncc1S(=O)(=O)NC(=NC#N)NC(C)C` ; logP observed: -1.02

###

recorded endpoint: logP
Reply with just the number.

// worked examples, logP included
[[record]]
structure_smiles = "Cc1cccc(Nc2ccncc2S(=O)(=O)NC(=NC#N)NC(C)C)c1"
recorded_endpoint = "logP"
quantitative_readout = 0.86

[[record]]
structure_smiles = "Cc1ccccc1Nc1ccncc1S(=O)(=O)NC(=NC#N)NC(C)C"
recorded_endpoint = "logP"
quantitative_readout = 0.67

[[record]]
structure_smiles = "CC(C)NC(=NC#N)NS(=O)(=O)c1cnccc1NC1CCCCC1"
recorded_endpoint = "logP"
quantitative_readout = 0.75


Alright, here's another compound for you.
Sample `CCNC(=NC#N)NS(=O)(=O)c1cnccc1NC1CCCCCC1` ; logP observed: 0.75
